Molecular target: UniProtKB O75582
Sequence (O75582 whole entry, looked up): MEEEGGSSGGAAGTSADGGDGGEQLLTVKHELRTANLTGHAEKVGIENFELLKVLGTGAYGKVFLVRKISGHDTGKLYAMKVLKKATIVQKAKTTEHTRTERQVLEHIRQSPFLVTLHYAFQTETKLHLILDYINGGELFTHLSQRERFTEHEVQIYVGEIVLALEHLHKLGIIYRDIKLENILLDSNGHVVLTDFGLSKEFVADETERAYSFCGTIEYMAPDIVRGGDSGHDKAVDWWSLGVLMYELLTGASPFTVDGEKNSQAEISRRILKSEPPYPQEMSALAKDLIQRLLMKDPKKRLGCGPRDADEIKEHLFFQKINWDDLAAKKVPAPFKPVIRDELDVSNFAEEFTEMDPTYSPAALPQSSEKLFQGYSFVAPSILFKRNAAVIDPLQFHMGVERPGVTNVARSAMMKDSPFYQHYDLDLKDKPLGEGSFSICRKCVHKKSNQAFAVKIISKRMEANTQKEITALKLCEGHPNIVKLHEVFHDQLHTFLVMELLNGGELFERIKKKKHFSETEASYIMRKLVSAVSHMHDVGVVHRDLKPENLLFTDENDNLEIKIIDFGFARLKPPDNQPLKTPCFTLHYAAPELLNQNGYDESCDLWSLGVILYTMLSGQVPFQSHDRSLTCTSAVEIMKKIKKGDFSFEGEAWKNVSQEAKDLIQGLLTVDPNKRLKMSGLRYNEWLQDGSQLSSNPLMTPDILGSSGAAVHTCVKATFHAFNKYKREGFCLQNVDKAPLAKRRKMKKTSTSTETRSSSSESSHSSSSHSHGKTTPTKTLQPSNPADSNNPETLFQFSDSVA
Experiment: radiometric filter-binding kinase assay, Kinase HotSpot
Details: compound 0.5 µM; ATP 10 µM
Reported residual activity by item:
Readout Name: residual activity (%)

INSERT INTO results (compound, unit, observed) VALUES
  ('O=c1cc(N2CCOCC2)oc2c1ccc1ccccc12', '%', 103),
  ('O=C1NC(=O)/C(=C/c2ccc3c(c2)OC(F)(F)O3)S1', '%', 91.1),
  ('CCC(=O)Nc1ccc2ncnc(Nc3cccc(Br)c3)c2c1', '%', 90),
  ('CC(C)N(CCC(=O)c1ccc2ccccc2c1)Cc1ccccc1', '%', 102),
  ('CNc1cc2c(Nc3cccc(Br)c3)ncnc2cn1', '%', 92.3),
  ('CO[C@H]1CC2CC[C@@H](C)[C@@](O)(O2)C(=O)C(=O)N2CCCC[C@H]2C(=O)OC([C@H](C)C[C@@H]2CC[C@@H](O)[C@H](OC)C2)CC(=O)[C@H](C)/C=C(\C)[C@@H](O)[C@@H](OC)C(=O)[C@H](C)C[C@H](C)/C=C/C=C/C=C/1C (some centres undefined)', '%', 106),
  ('CCN(CC)C(=O)c1ccc(Nc2nc(OCC3CCCCC3)c3nc[nH]c3n2)cc1', '%', 89.8),
  ('CC[n+]1c(/C=C/N(C)c2ccccc2)n(-c2ccccc2)c2ccc(-c3nc4ccccc4s3)cc21', '%', 111),
  ('COc1ccc(COc2ccc(Cc3cnc(N)nc3N)cc2OC)cc1', '%', 103);
